target: T1, FABP3 with N-terminal His6 tag (UniProt P05413 1-133); experiment: quartz crystal microbalance (QCM); His6-FABP3 (or FABP3 F16S) immobilised on the gold-plated quartz sensor through Ni-NTA groups; αSyn, its variants or peptides added at varying concentrations; room temperature; 50 mM Tris-HCl pH 7.4; kobs = koff + kon[αSyn], Kd from kon and koff (AQUA 2.0); settings: both partners purified
T1 construct: synthetic gene (Invitrogen GeneArt) in pET28a between NdeI and XhoI; Apo (delipidized) form; held on the Ni-NTA quartz sensor by the His6 tag; also called His6-FABP3; not shown: His6, N-terminal, kept
T1 sequence (P05413 whole entry): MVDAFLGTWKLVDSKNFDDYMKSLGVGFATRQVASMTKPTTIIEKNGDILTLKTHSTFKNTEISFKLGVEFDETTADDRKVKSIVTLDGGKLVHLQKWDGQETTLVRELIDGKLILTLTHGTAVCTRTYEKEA
experimental.readout: pKd
In plain terms, pKd is the concentration in mol/L turned into minus its base-10 logarithm.

Ask | Can you share its pKd? I mean this binder: EEGFQDYEPEA (source: synthetic peptide (SCRUM Inc or BEX Co Ltd)) [αSynP130-140 Y133F]
Reply | 8.70

Ask | How about this binder: EEGYQDYEPEA (also called α-synuclein decoy peptide; C-terminal peptide of αSyn; source: synthetic peptide (SCRUM Inc or BEX Co Ltd)) [αSynP130-140]
Reply | 8.21

Ask | Param item: EEGYQDFEPEA (source: synthetic peptide (SCRUM Inc or BEX Co Ltd)) [αSynP130-140 Y136F]
Reply | 8.11

Ask | Now consider EEGFQDWEPEA (source: synthetic peptide (SCRUM Inc or BEX Co Ltd)) [αSynP130-140 Y133F/Y136W] and answer again.
Reply | 8.21

Ask | Now consider EEGFQDFEPEA (source: synthetic peptide (SCRUM Inc or BEX Co Ltd)) [αSynP130-140 Y133F/Y136F] and answer again.
Reply | 8.68

Ask | Could you do the same for EEGYQDWEPEA (source: synthetic peptide (SCRUM Inc or BEX Co Ltd)) [αSynP130-140 Y136W] , please?
Reply | 8.20

Ask | Cool, now EEGWQDWEPEA (source: synthetic peptide (SCRUM Inc or BEX Co Ltd)) [αSynP130-140 Y133W/Y136W]
Reply | 8.21
